# Assay Protocol: Pharmacokinetics in vivo in mice, single intravenous or single oral administration, plasma LC-MS/MS
# Test Settings: mouse, Intravenous injection (1 mg/kg), female Balb/c Nude mice, read-out: Clearance rate
Property Label: clearance (mL/min/kg)

Compound	Property Label	Quantitative Readout
C[C@@H]1COCCN1c1cc(-c2ccnn2C)c2c(F)cnc(-c3ccn[nH]3)c2n1 [Example 1]	clearance	13.7

----------
# System: tumor cell line LoVo
# Assay Protocol: in vitro LoVo cell proliferation inhibition assay (CellTiter-Glo cell viability)
# Assay type: cell-based
# Test Settings: Homo sapiens, LoVo cells
// IC50 lookup, one value per entry

Molecule	System Name	Value Unit	IC50
Cc1nn(C)cc1-c1cc(N2CCOC[C@H]2C)nc2c(-c3ccn[nH]3)ncc(F)c12 [Example 14]	tumor cell line LoVo	nM	103
C[C@@H]1COCCN1c1cc(-c2ccnn2C)c2c(F)cnc(-c3ccn[nH]3)c2n1 [Example 1]	tumor cell line LoVo	nM	64
Cc1cnccc1-c1cc(N2CCOC[C@H]2C)nc2c(-c3ccn[nH]3)ncc(F)c12 [Example 20]	tumor cell line LoVo	nM	41
C[C@@H]1COCCN1c1cc(N2CCC3(CNC3)C2)c2c(F)cnc(-c3ccn[nH]3)c2n1 [Example 27]	tumor cell line LoVo	nM	374
C[C@@H]1COCCN1c1cc(C2(C#N)CCOCC2)c2c(F)cnc(-c3ccn[nH]3)c2n1 [Example 3]	tumor cell line LoVo	nM	61
C[C@@H]1COCCN1c1cc(C2CCOCC2)c2c(F)cnc(-c3ccn[nH]3)c2n1 [Example 11]	tumor cell line LoVo	nM	59
C[C@@H]1COCCN1c1cc(N2CCOCC2)c2c(F)cnc(-c3ccn[nH]3)c2n1 [Example 13]	tumor cell line LoVo	nM	66
Cc1cnn(C)c1-c1cc(N2CCOC[C@H]2C)nc2c(-c3ccn[nH]3)ncc(F)c12 [Example 2]	tumor cell line LoVo	nM	78
